target: GlcNAc(b1-4)GlcNAc(b1-4)GlcNAc(b1-4)GlcNAc(b1-4)GlcNAc(b1-4)GlcNAc; assay: glycan array binding signal (z-score within array); higher = stronger binding; conditions: glycan notation: IUPAC condensed, linker removed
This is one part of a sample in which the strongest signals are shown more often than they occur.
outcome_measure: glycan array binding signal (z-score)
One number for each entry.

binder	glycan array binding signal (z-score)
PfulAvr4 (Pseudocercospora fuligena) (protein) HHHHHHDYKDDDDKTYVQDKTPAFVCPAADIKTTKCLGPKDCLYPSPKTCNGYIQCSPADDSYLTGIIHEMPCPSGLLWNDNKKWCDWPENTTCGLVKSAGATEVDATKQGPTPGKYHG	23.3
Mg3lysM (Mycosphaerella graminicola) (protein) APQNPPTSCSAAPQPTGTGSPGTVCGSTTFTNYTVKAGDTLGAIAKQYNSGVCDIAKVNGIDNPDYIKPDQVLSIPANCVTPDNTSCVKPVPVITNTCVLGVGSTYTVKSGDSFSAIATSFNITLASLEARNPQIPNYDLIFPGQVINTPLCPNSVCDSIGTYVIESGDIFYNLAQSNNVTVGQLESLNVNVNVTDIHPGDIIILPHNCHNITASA	13.5
Vd2LysM (Verticillium dahliae) (protein) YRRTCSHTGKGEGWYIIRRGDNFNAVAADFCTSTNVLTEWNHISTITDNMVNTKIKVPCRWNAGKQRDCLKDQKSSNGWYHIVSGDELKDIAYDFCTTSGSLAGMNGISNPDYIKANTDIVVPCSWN	4.42

Next:
Q: I am curious: what glycan array binding signal (z-score) value has been reported for Mg1lysM (Mycosphaerella graminicola) (protein) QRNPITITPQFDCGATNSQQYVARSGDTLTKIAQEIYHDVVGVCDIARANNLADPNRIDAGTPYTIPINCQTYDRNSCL ?
Ans: 7.47
